# Test system: IGROV1 ovarian
# assay-name: NCI tumour cell line growth inhibition, 48 h
# key: entry, value: GI50
endpoint-label: GI50

{"compound": "C#CCC(Cc1cnc2nc(N)nc(N)c2n1)c1ccc(C(=O)N[C@@H](CCC(=O)O)C(=O)O)cc1 (stereo partly specified)", "reading": "< 0.01 µM"}
{"compound": "COc1ccccc1CCN=C1NC(=O)/C(=C/c2ccc3ncccc3c2)S1", "reading": "4.87 µM"}
{"compound": "COC(=O)C1=C(C(=O)ON)C2C=CC1(C(Cc1ccccc1)Nc1ccccc1)O2 (stereo unspecified)", "reading": "1.87 µM"}
{"compound": "CCCc1cc2c(=O)c(C(=O)OC)c[nH]c2cc1N(CC)CC", "reading": "> 100 µM"}
{"compound": "O=C(c1ccco1)c1nc2cc(Cl)ccc2[n+]([O-])c1C(F)(F)F", "reading": "54.5 µM"}
{"compound": "CC(C)(O)CS(=O)(=O)Nc1ccc2c(c1)CCN(C(=O)COc1cccnc1)C2", "reading": "> 84 µM"}

====

# Test system: DU-145 prostate
# assay-name: NCI tumour cell line growth inhibition, 48 h
# key: entry, value: TGI

{"compound": "O=c1c2ccccc2n(C[C@H]2CO2)c2ccccc12", "TGI": "5.85 µM"}
{"compound": "O=C1C(N2CCNCC2)=C(Cl)C(=O)c2ncccc21", "TGI": "> 10 µM"}
{"compound": "O=C1CCCCCCCC/C=C\\CC(c2ccco2)O1 (stereo not drawn)", "TGI": "> 100 µM"}
{"compound": "COc1ccc2c(=O)c3ccoc3n(CC=C(C)C)c2c1", "TGI": "> 100 µM"}
{"compound": "Cc1ccc(N=Nc2ccc(O)c(CN(C)C)c2)cc1C", "TGI": "95.8 µM"}
{"compound": "CC(C)(C)C(=O)C(C(=O)C(C)(C)C)C(=O)C(C)(C)C", "TGI": "> 100 µM"}
{"compound": "c1ccc2c(c1)nc1n2CCCn2ccnc2-1", "TGI": "> 100 µM"}
{"compound": "CC(=O)OCC1OC(n2c(-c3ccccc3)c(C(C)=O)c(-c3ccc(Cl)cc3)c(C#N)c2=S)C(OC(C)=O)C(OC(C)=O)C1OC(C)=O (stereo not drawn)", "TGI": "> 100 µM"}
{"compound": "N#Cc1c(Cl)cccc1Oc1ccc(S(=O)(=O)/N=C(\\NN)Nc2ccc(Cl)cc2)cc1", "TGI": "86.9 µM"}
{"compound": "N[C@@H]1CCCC[C@H]1N.O=C([O-])C(=O)[O-].[Pt+4]", "TGI": "> 100 µM"}
{"compound": "C=CCN1C(=O)/C(=C/c2ccc(OC)cc2)NC1=S", "TGI": "> 100 µM"}
{"compound": "NC(N)=N/N=C\\c1cccc(OCc2ccccc2)c1", "TGI": "23.9 µM"}
{"compound": "C=C(C)C1Cc2c(cc(O)c3c(=O)c4c(oc23)C(O)Oc2cc(OC)c(OC)cc2-4)O1 (stereo not drawn)", "TGI": "> 10 µM"}

====

# key: entry, value: TGI
# Test system: ACHN renal
# assay-name: NCI tumour cell line growth inhibition, 48 h
endpoint-label: TGI

{"molecule": "COC1CC(OC2C(C)OC(OC3C(C)OC(OC4C(O)CC(O[C@H]5CC[C@@]6(C)C(=CC[C@]7(O)[C@@H]6C[C@@H](OC(=O)/C=C/c6ccccc6)[C@@]6(C)[C@]7(O)CC[C@@]6(O)C(C)=O)C5)OC4C)CC3OC)CC2OC)OC(C)C1O (some centres undefined)", "tested-on": "ACHN renal", "endpoint-label": "TGI", "reading": "> 6.25 µM"}
{"molecule": "O=C1c2ccccc2C(=O)c2c(Nc3ccc4c5c(cccc35)C(=O)c3ccccc3-4)cccc21", "tested-on": "ACHN renal", "endpoint-label": "TGI", "reading": "> 100 µM"}
{"molecule": "O=C(CNc1cccc([N+](=O)[O-])c1)Nn1c(-c2ccccc2)nc2ccccc2c1=O", "tested-on": "ACHN renal", "endpoint-label": "TGI", "reading": "3.34 µM"}
{"molecule": "N#C/C(=C/c1ccc[nH]1)P(=O)(O)O", "tested-on": "ACHN renal", "endpoint-label": "TGI", "reading": "> 100 µM"}
{"molecule": "CCC1(c2c(F)c(F)c(N)c(F)c2F)CCC(=O)NC1=O (centres undefined)", "tested-on": "ACHN renal", "endpoint-label": "TGI", "reading": "> 100 µM"}
{"molecule": "C/C(=N\\Nc1cc(C)c2cc(C)ccc2n1)c1ccccn1", "tested-on": "ACHN renal", "endpoint-label": "TGI", "reading": "1.14 µM"}
{"molecule": "COC(=O)c1ccccc1C1CN=NC12Cc1ccc(C)c(C)c1C2=O (centres undefined)", "tested-on": "ACHN renal", "endpoint-label": "TGI", "reading": "> 100 µM"}
{"molecule": "Cc1ccc(NC(=O)CSc2nc(C)nc3c2sc(=S)n3-c2ccccc2)cc1", "tested-on": "ACHN renal", "endpoint-label": "TGI", "reading": "> 10 µM"}
{"molecule": "Cc1ccc(NN=NCCCCN)cc1", "tested-on": "ACHN renal", "endpoint-label": "TGI", "reading": "> 100 µM"}
{"molecule": "CCCCc1c2c(nc3c1CCCC3O)CCCC2 (centres undefined)", "tested-on": "ACHN renal", "endpoint-label": "TGI", "reading": "> 100 µM"}
{"molecule": "CCC(CO)Nc1nc(NCc2ccccc2O)c2ncn(C(C)C)c2n1 (centres undefined)", "tested-on": "ACHN renal", "endpoint-label": "TGI", "reading": "> 100 µM"}
{"molecule": "C#CCC(Cc1cnc2nc(N)nc(N)c2n1)c1ccc(C(=O)N[C@@H](CCC(=O)O)C(=O)O)cc1 (some centres undefined)", "tested-on": "ACHN renal", "endpoint-label": "TGI", "reading": "> 100 µM"}
{"molecule": "COc1cc2c3c(n(CCCN)c(=O)c2cc1OC)-c1cc2c(cc1/C3=C\\CCN)OCO2", "tested-on": "ACHN renal", "endpoint-label": "TGI", "reading": "45 µM"}
{"molecule": "O=c1nc2n(-c3ccc(Cl)cc3)c3ccc([N+](=O)[O-])cc3cc-2c(=O)[nH]1", "tested-on": "ACHN renal", "endpoint-label": "TGI", "reading": "> 100 µM"}
{"molecule": "CC(C)(O)CS(=O)(=O)Nc1ccc2c(c1)CCN(C(=O)COc1cccnc1)C2", "tested-on": "ACHN renal", "endpoint-label": "TGI", "reading": "> 100 µM"}
{"molecule": "O=C(CNc1ccc2c(c1)C(=O)c1ccccc1C2=O)Nc1ccc2c(c1)C(=O)c1ccccc1C2=O", "tested-on": "ACHN renal", "endpoint-label": "TGI", "reading": "3.01 µM"}
{"molecule": "C=CC(=O)N1CCN(c2nc(=O)n(-c3c(C)ccnc3C(C)C)c3nc(-c4c(O)cccc4F)c(F)cc23)[C@@H](C)C1", "tested-on": "ACHN renal", "endpoint-label": "TGI", "reading": "> 100 µM"}
{"molecule": "Cn1c(/C=C(\\C#N)c2ccccc2)nc2c(N3CCOCC3)nc(Cl)nc21", "tested-on": "ACHN renal", "endpoint-label": "TGI", "reading": "1.59 µM"}
{"molecule": "CCn1c(CN2CCN(Cc3ccccc3)CC2)nc2cc(NC(=O)c3cccs3)ccc21", "tested-on": "ACHN renal", "endpoint-label": "TGI", "reading": "75.4 µM"}
{"molecule": "CCCCCC/C=C1\\CCC(CN2CCCC2)C1=O (centres undefined)", "tested-on": "ACHN renal", "endpoint-label": "TGI", "reading": "32.3 µM"}
{"molecule": "Oc1ccccc1/C=N/Nc1nc(N/N=C/c2ccccc2O)nc(N/N=C/c2ccccc2O)n1", "tested-on": "ACHN renal", "endpoint-label": "TGI", "reading": "> 100 µM"}
{"molecule": "COc1cc2cc(Oc3ccc(NC(=O)Nc4cccc(C(F)(F)F)c4)cc3)c(C)nc2cc1OC", "tested-on": "ACHN renal", "endpoint-label": "TGI", "reading": "7.71 µM"}
{"molecule": "Oc1cc(O)c2c(-c3c(O)c(-c4ccc(O)c(O)c4)[o+]c4cc(O)cc(O)c34)c(O)c(-c3ccc(O)c(O)c3)[o+]c2c1", "tested-on": "ACHN renal", "endpoint-label": "TGI", "reading": "66.6 µM"}
{"molecule": "O=C(CN1CCN(CCCOc2c(-c3ccccc3)oc3ccccc3c2=O)CC1)Nc1ccc(Cl)cc1C(=O)c1ccccc1Cl", "tested-on": "ACHN renal", "endpoint-label": "TGI", "reading": "> 100 µM"}
{"molecule": "COc1ccc(C2CC(c3ccccc3)=Nc3c(-c4ccccc4)nnn32)cc1 (centres undefined)", "tested-on": "ACHN renal", "endpoint-label": "TGI", "reading": "> 100 µM"}
{"molecule": "NC(=O)C(N)=O", "tested-on": "ACHN renal", "endpoint-label": "TGI", "reading": "> 100 µM"}
{"molecule": "COc1ccc(/C=C/C(=O)c2ccc(SC)cc2)cc1OC", "tested-on": "ACHN renal", "endpoint-label": "TGI", "reading": "27.6 µM"}
{"molecule": "Oc1ccccc1C=NCc1ccco1", "tested-on": "ACHN renal", "endpoint-label": "TGI", "reading": "> 100 µM"}
{"molecule": "CC(=O)NC(C)(C)C1CC=C(C)CC1 (centres undefined)", "tested-on": "ACHN renal", "endpoint-label": "TGI", "reading": "> 100 µM"}
{"molecule": "N#CC(C(=O)/C(=N/N)C(C#N)c1ccccc1)c1ccccc1 (centres undefined)", "tested-on": "ACHN renal", "endpoint-label": "TGI", "reading": "> 100 µM"}
{"molecule": "O=C(/C=C/c1cccnc1)NCCCCC1CCCN(C(=O)c2ccccc2)C1 (centres undefined)", "tested-on": "ACHN renal", "endpoint-label": "TGI", "reading": "> 100 µM"}
{"molecule": "Cc1ccc(N=Nc2ccc(O)c(CN(C)C)c2)cc1C", "tested-on": "ACHN renal", "endpoint-label": "TGI", "reading": "60.1 µM"}
{"molecule": "CC1(CO)OC(n2cc(C(=O)NC(=O)OCc3ccccc3)c(=O)[nH]c2=O)CC1O (centres undefined)", "tested-on": "ACHN renal", "endpoint-label": "TGI", "reading": "> 100 µM"}
{"molecule": "CC(=O)OC[C@]1(O)CC[C@@]23CC1C[C@@H]2CCC1C(C)(C)CCC[C@@]13C (some centres undefined)", "tested-on": "ACHN renal", "endpoint-label": "TGI", "reading": "29.3 µM"}

Value source: PubChem BioAssay (NCI)
